- Tested on: Danio rerio embryo/larva
- test details: max % larvae with blood pooling across tested concentrations; higher = more toxic; extreme values may be limits of the assay
- protocol conditions: exposure: 6-8 hpf to 5 dpf, scored at 6 dpf

| compound | max % larvae |
| --- | --- |
| O=C(O)C(F)(F)C(F)(F)C(F)(F)C(F)(F)C(F)(F)C(F)(F)C(F)(F)C(F)F [9H-Perfluorononanoic acid] (max tested concentration (log10 uM): 2) | 0% |
| C=C(C)C(=O)OCC(F)(F)C(F)(F)C(F)(F)C(F)F [1H,1H,5H-Perfluoropentyl methacrylate] (max tested concentration (log10 uM): 2) | 0% |
| NC(=O)C(F)(F)C(F)(F)C(F)(F)F [Heptafluorobutyramide] (max tested concentration (log10 uM): 2) | 0% |
| O=C(CC(=O)C(F)(F)F)C(F)(F)F [1,1,1,5,5,5-Hexafluoro-2,4-pentanedione] (max tested concentration (log10 uM): 2) | 0% |
| COC(=O)C(F)(F)C(F)(F)OC(F)(C(F)(F)F)C(F)(F)OC(F)=C(F)F (stereo unspecified) [Methyl perfluoro(3-(1-ethenyloxypropan-2-yloxy)propanoate)] (max tested concentration (log10 uM): 1.60206) | 0% |
| OCCC(F)(F)C(F)(F)C(F)(F)C(F)(F)C(F)(F)C(F)(F)C(F)(F)C(F)(F)F [2-(Perfluorooctyl)ethanol] (max tested concentration (log10 uM): 2) | 0% |
| N=C(N)C(F)(F)C(F)(F)C(F)(F)C(F)(F)C(F)(F)C(F)(F)C(F)(F)F [Perfluorooctanamidine] (max tested concentration (log10 uM): 1) | 16.7% |
| FC(F)(F)C(F)(F)C(F)(F)CI [Heptafluorobutyl iodide] (max tested concentration (log10 uM): 2) | 0% |
| O=C(Cl)C(F)(F)C(F)(F)C(F)(F)C(F)(F)C(F)(F)C(F)(F)C(F)(F)C(F)(F)F [Perfluorononanoyl chloride] (max tested concentration (log10 uM): 1.47712) | 16.7% |
| O=C(O)C(F)(F)C(F)(F)C(F)(F)C(F)(F)C(F)(F)C(F)(F)C(F)(F)C(F)(F)Cl [9-Chloro-perfluorononanoic acid] (max tested concentration (log10 uM): 2) | 41.7% |
| O=P(O)(O)OCCC(F)(F)C(F)(F)C(F)(F)C(F)(F)C(F)(F)C(F)(F)F [6:2 Fluorotelomer phosphate monoester] (max tested concentration (log10 uM): 2) | 0% |
| NC(=O)C(F)(F)C(F)(F)C(F)(F)C(F)(F)C(F)(F)C(F)(F)C(F)(F)F [Perfluorooctanamide] (max tested concentration (log10 uM): 2) | 0% |
| O=C(O)C(F)(F)C(F)(F)C(F)(F)C(F)(F)C(F)(F)C(F)(F)C(F)(F)C(F)(F)C(F)(F)F [Perfluorodecanoic acid] (max tested concentration (log10 uM): 1.47712) | 0% |
| O=S(=O)(O)C(F)(F)C(F)(F)C(F)(F)C(F)(F)C(F)(F)C(F)(F)F [Potassium perfluorohexanesulfonate] (max tested concentration (log10 uM): 2) | 16.7% |
| O=C(O)C(F)(F)OC(F)(F)C(F)(F)OC(F)(F)C(F)(F)C(F)(F)C(F)(F)F [Perfluoro-3,6-dioxadecanoic acid] (max tested concentration (log10 uM): 2) | 50% |
| OCC(F)(F)C(F)(F)C(F)(F)CO [Hexafluoroamylene glycol] (max tested concentration (log10 uM): 2) | 0% |
| O=S(=O)(OCC(F)(F)F)C(F)(F)C(F)(F)C(F)(F)C(F)(F)F [2,2,2-Trifluoroethyl perfluorobutanesulfonate] (max tested concentration (log10 uM): 2) | 31.8% |
| O=C(O)C(F)(F)C(F)(F)C(F)(F)C(=O)O [Perfluoropentanedioic acid] (max tested concentration (log10 uM): 2) | 0% |
| FC(F)(F)C(F)(F)C(F)(F)C(F)(F)C(F)(F)C(F)(F)I [Perfluoro-1-iodohexane] (max tested concentration (log10 uM): 2) | 0% |
| OCC(F)(F)OC(F)(F)C(F)(F)OC(F)(F)C(F)(F)OC(F)(F)CO [1H,1H,11H,11H-Perfluorotetraethylene glycol] (max tested concentration (log10 uM): 1.47712) | 0% |
| OCC(F)(F)C(F)(F)C(F)(F)C(F)F [1H,1H,5H-Perfluoropentanol] (max tested concentration (log10 uM): 2) | 0% |

The measurements presented in this section are drawn from the supplement of paper PMC11281043.
